The reported measurements were obtained from PubChem BioAssay (NCI).

# Tested on: SNB-19 CNS
# assay protocol: NCI tumour cell line growth inhibition, 48 h
Assign TGI to each entry below.

Example entries begin here.
CC1(C)N=C(N)N=C(N)N1c1ccc(CCc2ccc(Cl)cc2S(=O)(=O)F)c(Cl)c1 = > 100 µM
O=C(O)C1C(=O)Oc2c(cccc2[N+](=O)[O-])C1O (configuration not stated) = > 100 µM
CC1C2CC(CC2N)C1(C)C (configuration not stated) = > 100 µM
O=C(Nc1ccc2[nH]c(C(=O)N3CC(CCl)c4c3cc([N+](=O)[O-])c3ccccc43)cc2c1)c1cc2ccccc2o1 (configuration not stated) = > 1100 µM
Cc1ccc(-c2cc(=O)c3cc(C)c(C)c(C(=O)O)c3o2)cc1 = > 100 µM

Provide the reported TGI of each entry below, same order.
1. Cc1[nH]c(=O)nc2nc3ccc(Cl)cc3c(NC(C)(CO)CO)c12
2. CSC1(SC)N2Cc3ccccc3N=C2C1(c1ccccc1)c1ccccc1

OUTPUT:
> 95.3 µM
> 100 µM

* * *

Assign TGI to each entry below.
# Test system: IGROV1 ovarian
# assay protocol: NCI tumour cell line growth inhibition, 48 h

Example entries begin here.
N#CCOc1cccc(C2(N3CC=CCC3)CCCCC2)c1 = > 100 µM
COc1ccc(N2C(N)=C(C#N)C(C#N)(C#N)C2c2cccc([N+](=O)[O-])c2)cc1 (stereo unspecified) = 29.7 µM
O=C(Nc1ccc2[nH]c(C(=O)N3CC(CCl)c4c3cc([N+](=O)[O-])c3ccccc43)cc2c1)c1cc2ccccc2o1 (stereo unspecified) = > 1100 µM
COc1cc2c(cc1OC(=O)c1cc3ccccc3[nH]1)N=C[C@@H]1CCCN1C2=O = > 39.6 µM
C[C@H](CN1CC(=O)NC(=O)C1)N1CC(=O)NC(=O)C1 = > 100 µM
COc1cc2c(cc1OC)-c1ccc3cc4c(cc3c1N(CCN(C)C)C2)OCO4 = 3.25 µM
COc1ccc(-c2nnc(-c3ccncc3)o2)cc1 = > 100 µM
N#CCSc1c(-c2ccccc2)c(=O)n(-c2ccccc2)c(=S)n1-c1ccccc1 = > 100 µM
O=S(=O)(O)c1cc(Nc2ccnc3ccccc23)c2c(S(=O)(=O)O)cc(S(=O)(=O)O)cc2c1 = > 100 µM
CCOC(=O)c1nc2cc(C(F)(F)F)ccc2nc1Nc1ccc(F)cc1 = > 100 µM

Provide the reported TGI of each entry below, same order.
1. Cc1cc2c(c(C(=O)NCCC(=O)N[C@@H](C)C(=O)OCc3ccccc3)c1)Oc1c(cc(C)cc1C(=O)NCCC(=O)N[C@@H](C)C(=O)OCc1ccccc1)S2
2. O=C1c2cc(-c3ccccc3)ccc2-c2c1c1ccc([N+](=O)[O-])cc1c(=O)n2CCCBr
3. c1cncc(-c2nc3ccccc3s2)c1
4. C[C@]1(C(=O)O)N[C@H](C(=O)O)CS1

OUTPUT:
1: > 100 µM; 2: > 50 µM; 3: > 100 µM; 4: > 1000 µM

Provide the reported TGI of each entry below, same order.
1. CCOC(=O)C1=NN(c2ccc(Cl)cc2)C2=CC(C)=NN(C)C(=S)N21
2. CNC(=O)c1ccccc1[S+]1c2cccc3cccc(c23)C(=O)N1C (stereo unspecified)
3. COc1ccc(S(=O)(=O)Nc2ccc(-c3csc(N4C(=O)/C(=C/c5ccccc5)N=C4c4ccccc4)n3)cc2)cc1Cl
4. O=C1c2ccccc2-c2nnc(-c3ccc(Cl)cc3)cc21
5. O=C(NN1C(=O)CSC1c1ccco1)c1ccncc1 (stereo unspecified)
6. Cc1ccc(C(=O)N2c3ccccc3N(C)n3cccc3C2CC(=O)O)cc1 (stereo unspecified)
7. CCCCNC(=S)c1ccc(OC(=O)Nc2ccc(Cl)cc2)cc1

OUTPUT:
1. > 100 µM
2. > 100 µM
3. > 100 µM
4. > 10 µM
5. > 100 µM
6. > 100 µM
7. 70.4 µM

* * *

# System: MDA-MB-435
# assay protocol: NCI tumour cell line growth inhibition, 48 h
Assign TGI to each entry below.

Example entries begin here.
O=C(NCCCCCCNC(=O)n1cc(F)c(=O)[nH]c1=O)NCCCOCCOCCOCCOCCOCCOCCOCCOCCOCCOCCOCCOCCOCCOCCOCCOCCOCCOCCOCCOCCOCCCNC(=O)C(O)C(O)C(OC1OC(CO)C(O)C(O)C1O)C(O)CO (stereo not drawn) = > 100 µM
O=c1oc(-c2ccccc2)cc2cccc(O)c12 = > 100 µM
NNC(=O)CCC(NS(=O)(=O)c1ccc(Cl)cc1)C(=O)NN (stereo not drawn) = > 100 µM
NC(=O)C[C@H](NC(=O)C1(NC(=O)[C@H](Cc2ccc(CP(=O)(O)O)cc2)NC(=O)C(=O)O)CCCCC1)C(=O)NCCCc1cccc2ccccc12 = > 10 µM
Fc1cccc(CSc2ncnc3c2ncn3C2CCCS2)c1 (stereo not drawn) = 38.4 µM
C[C@]12CC[C@H](O)CC1=CC[C@@H]1[C@@H]2CC[C@]2(C)c3nc(Cl)ccc3C[C@@H]12 = > 100 µM

Provide the reported TGI of each entry below, same order.
1. CC1C2CC(CC2N)C1(C)C (stereo not drawn)
2. CC1(C)O[C@H]2OC(CO)C(OS(C)(=O)=O)[C@H]2O1 (stereo partly drawn)
3. Cn1c(/C=C(\C#N)c2cccc(C(F)(F)F)c2)nc2c(N3CCOCC3)nc(Cl)nc21
4. CC(=O)OC1CC[C@@]2(C)C(CC[C@]3(C)C2CC=C2[C@@H]4CC(C)(C)CCC4(C)CCC23C)[C@@]1(C)C(=O)O (stereo partly drawn)
5. CC(=O)NC(C)c1ccc(N=NN2CCCC2)cc1 (stereo not drawn)
6. NC(=O)CCC(NC(=O)c1cccc2c(=O)c3ccccc3[nH]c12)C(=O)O (stereo not drawn)
7. N#C/C(=C\Nc1ccccn1)C(=O)c1ccco1
8. COc1ccc(S(=O)(=O)Nc2ccc(-c3csc(N4C(=O)/C(=C/c5ccccc5)N=C4c4ccccc4)n3)cc2)cc1Cl

OUTPUT:
> 100 µM
> 100 µM
2.43 µM
44.1 µM
> 100 µM
> 100 µM
> 100 µM
> 100 µM

Provide the reported TGI of each entry below, same order.
1. CCOC(=O)Cn1nnc2cc(Nc3nc4ccccc4nc3C(=O)OCC)ccc21
2. CC(=O)OCc1ccc(O)c(C=O)c1
3. CCNc1cc2c3c(c1)CCCN3CCC2
4. N#CCOc1cccc(C2(N3CC=CCC3)CCCCC2)c1
5. Clc1ccc(C(c2ccc(Cl)cc2)N2CCNCC2)cc1

OUTPUT:
> 100 µM
> 100 µM
11.2 µM
> 100 µM
3.63 µM

Provide the reported TGI of each entry below, same order.
1. Nc1nc2ccc3[nH]ncc3c2c2c1CCCC2
2. COc1ccc2nc3cc([N+](=O)[O-])ccc3c(NCCCN(CCO)CCO)c2c1
3. NC(=S)N/N=C/c1ccc(O)cn1
4. Cc1c(O)c(=O)ccn1CCc1c[nH]c2ccccc12

OUTPUT:
1: 3.36 µM; 2: 5.67 µM; 3: > 1130 µM; 4: > 100 µM

* * *

# System: RXF 393 renal
# assay protocol: NCI tumour cell line growth inhibition, 48 h
Assign TGI to each entry below.

Example entries begin here.
CCOC(=O)c1cn(CC)c2cc3c(cc2c1=O)CCS3(=O)=O = > 100 µM
NC(CC(=O)Nc1ccc(Cl)cc1)=Nc1ccccc1 = > 100 µM
Clc1ccc(/C=N/Nc2nnc3c4ccccc4c4ncccc4c3n2)cc1 = > 10 µM
COC(=O)c1c(O)ccc2c1c1c(n2Cc2ccccn2)C(=O)c2ccccc2C1=O = > 100 µM

INPUT: What does the record list as TGI for `COc1ccc([I+]c2ccccc2)cc1` ?
OUTPUT: > 100 µM

* * *

# System: SK-MEL-5 melanoma
# assay protocol: NCI tumour cell line growth inhibition, 48 h
Assign TGI to each entry below.

CCCCCCCCCCCCCCCCCCOc1ccc(/C=C/C2=[N+](CCCl)CCO2)cc1 = > 100 µM
CCOc1ccccc1N1C(=O)C(=O)C(c2nc3ccccc3o2)/C(=N\N)C1=O (stereo not drawn) = > 100 µM
COc1ccc(-c2cn(-c3cccc(C(=O)/C=C/c4ccc(O)c(OC)c4)c3)c(=O)[nH]2)cc1 = 11 µM

Provide the reported TGI of each entry below, same order.
1. NC(=O)C(=Cc1ccc(CP(=O)(O)O)cc1)C(N)=O
2. COc1ccc2oc(=Nc3ccc(F)cc3)c(C(N)=O)cc2c1
3. CC(=O)OCc1ccc(O)c(C=O)c1
4. NC(=O)c1ncn2c(=O)n(CCl)nnc12
5. CCOC(=O)C1=CC(C)(C(=O)OCC)Nc2c(nc(SC)n(C)c2=O)N1 (stereo not drawn)

OUTPUT:
["> 100 µM", "> 100 µM", "> 100 µM", "> 100 µM", "> 10 µM"]
